# EXPERIMENTAL SYSTEM: HCV NS3/4A protease complex, BMS strain (UniProt P27958, C1454S/C1711G, species not given)
# Construct: other: HCV NS3/4A enzyme assay; class symbols; numeric values; fused on or other part: three-lysine solubilising tail at the C-terminus of NS4A; purified on Ni-NTA from the pET21b vector (His tag implied)
# EXPERIMENT: FRET peptide assay to monitor HCV NS3/4A proteolytic activity (BMS strain)
# Format: biochemical, HCV genotype 1a
# MEASUREMENT CONDITIONS: read-out: IC50 Range; HCV NS3/4A enzyme assay; class symbols
pIC50: −log10 of the molar value.
Below, each of the compounds is paired with its reported pIC50 value.

Example results:
C=C[C@@H]1C[C@]1(NC(=O)[C@@H]1C[C@@H](Oc2ncc(OC)c3ccc(Cl)cc23)CN1C(=O)[C@@H](Nc1nc(-c2ccccc2F)cs1)C(C)(C)C)C(=O)NS(=O)(=O)C1CC1	7.70 to 9.00
C=C[C@@H]1C[C@]1(NC(=O)[C@@H]1C[C@@H](Oc2ncc(OC)c3ccc(Cl)cc23)CN1C(=O)[C@@H](Nc1nc(-c2ccc(O)cc2)cs1)C(C)(C)C)C(=O)NS(=O)(=O)C1CC1	7.70 to 9.00
C=C[C@@H]1C[C@]1(NC(=O)[C@@H]1C[C@@H](Oc2ncc(OC)c3ccc(Cl)cc23)CN1C(=O)[C@@H](Nc1nc(-c2ccc(Oc3ccccc3)cc2)cs1)C(C)(C)C)C(=O)NS(=O)(=O)C1CC1	7.70 to 9.00
C=C[C@@H]1C[C@]1(NC(=O)[C@@H]1C[C@@H](Oc2ncc(OC)c3ccc(Cl)cc23)CN1C(=O)[C@@H](Nc1nc(-c2ccc(F)cc2F)cs1)C(C)(C)C)C(=O)NS(=O)(=O)C1CC1	7.70 to 9.00
C=C[C@@H]1C[C@]1(NC(=O)[C@@H]1C[C@@H](Oc2ncc(OC)c3ccc(Cl)cc23)CN1C(=O)[C@@H](Nc1nc(-c2cnccn2)cs1)C(C)(C)C)C(=O)NS(=O)(=O)C1CC1	7.70 to 9.00
C=C[C@@H]1C[C@]1(NC(=O)[C@@H]1C[C@@H](Oc2cc(-c3ccccc3)nc3cc(OC)ccc23)CN1C(=O)[C@@H](Nc1nc(-c2ccccc2OC)cs1)C(C)(C)C)C(=O)NS(=O)(=O)C1CC1	7.70 to 9.00
C=C[C@@H]1C[C@]1(NC(=O)[C@@H]1C[C@@H](Oc2ncc(OC)c3ccc(Cl)cc23)CN1C(=O)[C@@H](Nc1nc(-c2ccc(S(C)(=O)=O)cc2)cs1)C(C)(C)C)C(=O)NS(=O)(=O)C1CC1	7.70 to 9.00
C=C[C@@H]1C[C@]1(NC(=O)[C@@H]1C[C@@H](Oc2ncc(OC)c3ccc(Cl)cc23)CN1C(=O)[C@@H](Nc1nc(-c2ccc(OCC)cc2)cs1)C(C)(C)C)C(=O)NS(=O)(=O)C1CC1	7.70 to 9.00
C=C[C@@H]1C[C@]1(NC(=O)[C@@H]1C[C@@H](Oc2ncc(OC)c3ccc(Cl)cc23)CN1C(=O)[C@@H](Nc1nc(-c2cc(C)ccc2OC(F)F)cs1)C(C)(C)C)C(=O)NS(=O)(=O)C1CC1	7.70 to 9.00
C=C[C@@H]1C[C@]1(NC(=O)[C@@H]1C[C@@H](Oc2ncc(OC)c3ccc(Cl)cc23)CN1C(=O)[C@@H](Nc1nc(-c2ccc(OC)c(OC)c2)cs1)C(C)(C)C)C(=O)NS(=O)(=O)C1CC1	7.70 to 9.00

Form field: reported pIC50 of C=C[C@@H]1C[C@]1(NC(=O)[C@@H]1C[C@@H](Oc2ncc(OC)c3ccc(Cl)cc23)CN1C(=O)[C@@H](Nc1nc(-c2cc(C)ccc2OC)cs1)C(C)(C)C)C(=O)NS(=O)(=O)C1CC1
7.70 to 9.00

Form field: reported pIC50 of C=C[C@@H]1C[C@]1(NC(=O)[C@@H]1C[C@@H](Oc2ncc(OC)c3ccc(Cl)cc23)CN1C(=O)[C@@H](Nc1nc(-c2ccccc2)c(-c2ccccc2)s1)C(C)(C)C)C(=O)NS(=O)(=O)C1CC1
7.70 to 9.00

Form field: reported pIC50 of C=C[C@@H]1C[C@]1(NC(=O)[C@@H]1C[C@@H](Oc2ncc(OC)c3ccc(Cl)cc23)CN1C(=O)[C@@H](Nc1nc(-c2cc(F)ccc2F)cs1)C(C)(C)C)C(=O)NS(=O)(=O)C1CC1
7.70 to 9.00

Form field: reported pIC50 of C=C[C@@H]1C[C@]1(NC(=O)[C@@H]1C[C@@H](Oc2ncc(OC)c3ccc(Cl)cc23)CN1C(=O)[C@@H](Nc1nc(-c2ccc(C)c(C)c2)cs1)C(C)(C)C)C(=O)NS(=O)(=O)C1CC1
7.70 to 9.00

Form field: reported pIC50 of C=C[C@@H]1C[C@]1(NC(=O)[C@@H]1C[C@@H](Oc2ncc(OC)c3ccc(Cl)cc23)CN1C(=O)[C@@H](Nc1nc(-c2cc(-c3ccc(Cl)cc3)no2)cs1)C(C)(C)C)C(=O)NS(=O)(=O)C1CC1
7.70 to 9.00
